# Organism: Rattus norvegicus
# Protocol Details: Open TG-GATES - Regimen: Daily Repeat
# Format: toxicity, organism-based, Sprague-Dawley
# Set-up: regimen Daily Repeat, gender Male, age 6 weeks
# Settings: in vivo, po, 0 mg/kg, […], tissue Plasma, route gavage, dose level Control, time 14 day
Below is a list of entries, each paired with its recorded BUN value.
Quick reminder: number only, in mg/dL, skip the unit.

{"Compound": "CC(=N)S [THIOACETAMIDE]", "BUN [mg/dL]": 18.6}

Problem: Would you kindly share the measured BUN for CCSCC[C@H](N)C(=O)O [ETHIONINE] ?
Solution: 16

Problem: May I ask what BUN has been recorded for C#C[C@]1(O)CC[C@H]2[C@@H]3CCc4cc(O)ccc4[C@H]3CC[C@@]21C [ETHINYL ESTRADIOL] ?
Solution: 15.4

Problem: Any idea what its BUN is? The compound is CC(C)C(=O)Nc1ccc([N+](=O)[O-])c(C(F)(F)F)c1 [FLUTAMIDE]
Solution: 14.4

Problem: Value lookup for BUN; key = O=C(N[C@H](CO)[C@H](O)c1ccc([N+](=O)[O-])cc1)C(Cl)Cl [CHLORAMPHENICOL]
Solution: 17.2

Problem: Need BUN, item CCC(C)(C)C(=O)O[C@H]1C[C@@H](C)C=C2C=C[C@H](C)[C@H](CC[C@@H]3C[C@@H](O)CC(=O)O3)[C@H]21 [SIMVASTATIN]
Solution: 20.6

Problem: BUN for Oc1ncnc2[nH]ncc12 [ALLOPURINOL] ?
Solution: 17.8

Problem: Item under review: `Nc1nc(N)c2nc(-c3ccccc3)c(N)nc2n1` . Reported BUN?
Solution: 14.6

Problem: Request the reported BUN associated with CN1C(=O)OC(C)(C)C1=O [TRIMETHADIONE]
Solution: 17.2

---

# Organism: Rattus norvegicus
# Protocol Details: Open TG-GATES - Regimen: Single
# Type: toxicity, organism-based, Sprague-Dawley
# Parameters: regimen Single, gender Male, age 6 weeks
# Settings: in vivo, po, 0 mg/kg, 9 h, tissue Blood, route gavage, dose level Control
Entries and their Hb values follow.
Field format: number, assumed g/dL, no unit text.

Some solved entries appear below for comparison.
{"Compound": "Oc1ncnc2[nH]ncc12 [ALLOPURINOL]", "Hb [g/dL]": 13.8}
{"Compound": "CC(=O)Oc1cc(C(C)C)c(OCCN(C)C)cc1C [MOXISYLYTE]", "Hb [g/dL]": 13.2}
{"Compound": "CN1C(=O)OC(C)(C)C1=O [TRIMETHADIONE]", "Hb [g/dL]": 13.5}
{"Compound": "CCc1oc2ccccc2c1C(=O)c1cc(I)c(O)c(I)c1 [BENZIODARONE]", "Hb [g/dL]": 13.6}
{"Compound": "CC(=N)S [THIOACETAMIDE]", "Hb [g/dL]": 13}

Problem: Data request, read-out Hb, for O=C(N[C@H](CO)[C@H](O)c1ccc([N+](=O)[O-])cc1)C(Cl)Cl [CHLORAMPHENICOL]
Solution: 13.5

Problem: Given O=C(O)c1cccnc1 [NIACIN] , state its recorded Hb.
Solution: 13

---

Below, each entry is listed with its recorded TG.
# Species on record: Rattus norvegicus
# Protocol Details: Open TG-GATES - Regimen: Daily Repeat
# Type: toxicity, organism-based, Sprague-Dawley
# Parameters: regimen Daily Repeat, gender Male, age 6 weeks
# Settings: in vivo, po, 300 mg/kg, […], tissue Plasma, route gavage, dose level Middle, time 28 day
Write the number in mg/dL without appending the unit.

The cases that follow already have their TG on record.
{"Molecule": "O=C(O)c1cccnc1 [NIACIN]", "Unit String": "mg/dL", "TG": 126.6}
{"Molecule": "CC(C)(S)[C@@H](N)C(=O)O [PENICILLAMINE]", "Unit String": "mg/dL", "TG": 87.8}
{"Molecule": "O=C(N[C@H](CO)[C@H](O)c1ccc([N+](=O)[O-])cc1)C(Cl)Cl [CHLORAMPHENICOL]", "Unit String": "mg/dL", "TG": 69.4}

Here is another molecule to look at.
Problem: Form field: reported TG of CCN1CCCC1CNC(=O)c1cc(S(N)(=O)=O)ccc1OC (centres undefined) [SULPIRIDE]
Solution: 84.4

---

# Organism: Rattus norvegicus
# Protocol Details: Open TG-GATES - Regimen: Single
# Type: toxicity, organism-based, Sprague-Dawley
# Design: regimen Single, gender Male, age 6 weeks
# Settings: in vivo, po, 0 mg/kg, 24 h, tissue Blood, route gavage, dose level Control
Measurement Name: MCV (fL)
Use fL as the unit, but write only the number.

Known results for compounds:
{"Compound": "CCc1oc2ccccc2c1C(=O)c1cc(I)c(O)c(I)c1 [BENZIODARONE]", "Unit String": "fL", "MCV": 65.2}
{"Compound": "CCSCC[C@H](N)C(=O)O [ETHIONINE]", "Unit String": "fL", "MCV": 64.4}
{"Compound": "CCN1CCCC1CNC(=O)c1cc(S(N)(=O)=O)ccc1OC (stereo not given) [SULPIRIDE]", "Unit String": "fL", "MCV": 63.9}
{"Compound": "Nc1nc(N)c2nc(-c3ccccc3)c(N)nc2n1", "Unit String": "fL", "MCV": 64.3}

Problem: What MCV value was documented for this compound, CN1C(=O)OC(C)(C)C1=O [TRIMETHADIONE] ?
Solution: 66.1

---

# Organism: Rattus norvegicus
# Protocol Details: Open TG-GATES - Regimen: Single
# Format: toxicity, organism-based, Sprague-Dawley
# Parameters: regimen Single, gender Male, age 6 weeks
# Settings: in vivo, po, 0 mg/kg, 24 h, tissue Plasma, route gavage, dose level Control
Measurement Name: DBIL (mg/dL)
Answer format: numeric, mg/dL implied, no suffix.

Problem: Quick one: DBIL for `O=C(N[C@H](CO)[C@H](O)c1ccc([N+](=O)[O-])cc1)C(Cl)Cl` ?
Solution: 0.012

Problem: // returns reported DBIL for input `CCSCC[C@H](N)C(=O)O`
Solution: 0.096

---

# Species: Rattus norvegicus
# Protocol Details: Open TG-GATES - Regimen: Single
# Type: toxicity, organism-based, Sprague-Dawley
# Design: regimen Single, gender Male, age 6 weeks
# Settings: in vivo, po, 0 mg/kg, 6 h, tissue Blood, route gavage, dose level Control
Flag rule - Ret less than 9% flags rule met; the remaining entries get rule not met.

Here's what some known entries look like.
{"Compound": "CN1C(=O)OC(C)(C)C1=O [TRIMETHADIONE]", "Label": "rule met"}
{"Compound": "C[C@]12CCC(=O)C=C1CC[C@@H]1[C@@H]2CC[C@@]2(C)[C@H]1CC[C@]2(C)O [METHYLTESTOSTERONE]", "Label": "rule met"}
{"Compound": "CCc1oc2ccccc2c1C(=O)c1cc(I)c(O)c(I)c1 [BENZIODARONE]", "Label": "rule not met"}

Problem: # TODO verify Ret < 9% strictly for this compound: CC(C)C(=O)Nc1ccc([N+](=O)[O-])c(C(F)(F)F)c1 [FLUTAMIDE]
Solution: rule met

Problem: Decide: Ret of CCSCC[C@H](N)C(=O)O [ETHIONINE] strictly below 9%?
Solution: rule met

Problem: Is Ret strictly under 9% for the entry O=C(N[C@H](CO)[C@H](O)c1ccc([N+](=O)[O-])cc1)C(Cl)Cl [CHLORAMPHENICOL] ?
Solution: rule met

Problem: Is Ret strictly under 9% for the entry O=C(O)c1cccnc1 [NIACIN] ?
Solution: rule met

Problem: Take the compound C[C@](N)(Cc1ccc(O)c(O)c1)C(=O)O [METHYLDOPA] and say whether its Ret is less than 9%.
Solution: rule not met

Problem: Say whether its Ret is strictly beneath 9%. Entry: Oc1ncnc2[nH]ncc12 [ALLOPURINOL]
Solution: rule met

Problem: Please indicate whether the reported Ret of C#C[C@]1(O)CC[C@H]2[C@@H]3CCc4cc(O)ccc4[C@H]3CC[C@@]21C [ETHINYL ESTRADIOL] is strictly below 9%.
Solution: rule not met

Problem: Determine whether this compound shows Ret lower than 9% (ties excluded): CC(=O)Oc1cc(C(C)C)c(OCCN(C)C)cc1C [MOXISYLYTE]
Solution: rule met

Problem: Lab log: compare recorded Ret with 9%; is it strictly lower for CCN1CCCC1CNC(=O)c1cc(S(N)(=O)=O)ccc1OC (stereo unspecified) [SULPIRIDE] ?
Solution: rule met

Problem: Is 9% strictly greater than the compound's reported Ret? compound: `Nc1nc(N)c2nc(-c3ccccc3)c(N)nc2n1`
Solution: rule met

---

# Species: Rattus norvegicus
# Protocol Details: Open TG-GATES - Regimen: Single
# Assay type: toxicity, organism-based, Sprague-Dawley
# Parameters: regimen Single, gender Male, age 6 weeks
# Settings: in vivo, po, 0 mg/kg, 9 h, tissue Blood, route gavage, dose level Control
Measurement Name: Ret (%)
State the answer as a number, implicitly in %.

{"Compound": "CN1C(=O)OC(C)(C)C1=O [TRIMETHADIONE]", "Ret, %": 7.6}

Let us move to another entry and its Ret.
Problem: Give its Ret value. Item: CC(=N)S [THIOACETAMIDE]
Solution: 9.4
